Listing of recorded MIC50 by entry.
Test system: Desulfovibrio sp.
assay-overview: Antimicrobial activity against Desulfovibrio sp. by Etest method
Assay type: functional
Number in µg/mL, nothing else.

Examples from the recorded data:
[
  {
    "compound": "C[C@@H](O)[C@H]1C(=O)N2C(C(=O)O)=C(S[C@@H]3CN[C@H](C(=O)N(C)C)C3)[C@H](C)[C@H]12 [MEROPENEM]",
    "MIC50 / µg/mL": 0.19
  },
  {
    "compound": "CN(C)c1ccc(O)c2c1C[C@H]1C[C@H]3[C@H](N(C)C)C(O)=C(C(N)=O)C(=O)[C@@]3(O)C(O)=C1C2=O [MINOCYCLINE]",
    "MIC50 / µg/mL": 6
  }
]

As a next step, examine the compound that follows.
The recorded MIC50 for entry CC[C@H]1OC(=O)[C@H](C)[C@@H](O[C@H]2C[C@@](C)(OC)[C@@H](O)[C@H](C)O2)[C@H](C)[C@@H](O[C@@H]2O[C@H](C)C[C@H](N(C)C)[C@H]2O)[C@](C)(O)C[C@@H](C)C(=O)[C@H](C)[C@@H](O)[C@]1(C)O [ERYTHROMYCIN] equals 0.5

====

Reported MIC50 is given for each of the following compounds.
Tested on: Desulfovibrio sp.
assay-overview: Antimicrobial activity against Desulfovibrio sp. by Etest method
Type: functional
Enter your answer as a number in µg/mL; do not include the unit.

[
  {
    "smiles-input": "C[C@H]1COc2c(N3CCN(C)CC3)c(F)cc3c(=O)c(C(=O)O)cn1c23.C[C@H]1COc2c(N3CCN(C)CC3)c(F)cc3c(=O)c(C(=O)O)cn1c23.O",
    "observed-value": 0.75
  }
]

Moving on to another compound below.
Recorded MIC50 for `CC(C)(O/N=C(\C(=O)N[C@@H]1C(=O)N2C(C(=O)[O-])=C(C[n+]3ccccc3)CS[C@H]12)c1csc(N)n1)C(=O)O` on Desulfovibrio sp. was 6

====

Tested on: Desulfovibrio sp.
assay-overview: Antimicrobial activity against Desulfovibrio sp. by Etest method
Type: functional
// classify: if (MIC50 < 0.5 mg/L) class 1 else class 0

Please review the following examples before continuing.
[
  {
    "smiles-input": "CC1(C)S[C@@H]2[C@H](NC(=O)[C@H](N)c3ccccc3)C(=O)N2[C@H]1C(=O)O",
    "target-system": "Desulfovibrio sp.",
    "group": "class 0"
  },
  {
    "smiles-input": "Cc1ncc([N+](=O)[O-])n1CCO",
    "target-system": "Desulfovibrio sp.",
    "group": "class 1"
  },
  {
    "smiles-input": "CO/N=C(\\C(=O)N[C@@H]1C(=O)N2C(C(=O)[O-])=C(C[n+]3cccc4c3CCC4)CS[C@H]12)c1csc(N)n1",
    "target-system": "Desulfovibrio sp.",
    "group": "class 0"
  },
  {
    "smiles-input": "CO/N=C(\\C(=O)N[C@@H]1C(=O)N2C(C(=O)O)=C(COC(C)=O)CS[C@H]12)c1csc(N)n1",
    "target-system": "Desulfovibrio sp.",
    "group": "class 0"
  },
  {
    "smiles-input": "O=C(N[C@H](CO)[C@H](O)c1ccc([N+](=O)[O-])cc1)C(Cl)Cl",
    "target-system": "Desulfovibrio sp.",
    "group": "class 0"
  }
]

Enquiry: Quick check: MIC50 of `CCC[C@@H]1C[C@@H](C(=O)N[C@@H]([C@H]2O[C@H](SC)[C@H](O)[C@@H](O)[C@H]2O)[C@H](C)Cl)N(C)C1` under 0.5 mg/L?
Return: class 1

====

Tested on: Desulfovibrio sp.
assay-overview: Antimicrobial activity against Desulfovibrio sp. by Etest method
Assay type: functional
Items are presented alongside their recorded MIC50.

[
  {
    "smiles-input": "CO[C@@]1(NC(=O)Cc2cccs2)C(=O)N2C(C(=O)O)=C(COC(N)=O)CS[C@@H]21",
    "MIC50": "> 256 mg/L"
  },
  {
    "smiles-input": "CCN1CCN(C(=O)N[C@@H](C(=O)N[C@@H]2C(=O)N3[C@@H]2SC(C)(C)[C@@H]3C(=O)O)c2ccccc2)C(=O)C1=O",
    "MIC50": "> 256 mg/L"
  }
]

Then there is this molecule:
Desulfovibrio sp. assay, molecule `CC(=O)OCC1=C(C(=O)O)N2C(=O)[C@@H](NC(=O)Cc3cccs3)[C@H]2SC1` , recorded MIC50 = > 256 mg/L

The reported numbers originate from ChEMBL document CHEMBL1649294.
